Test system: Rattus norvegicus
ASSAY_SUMMARY: Tested for the inhibition of Tumor necrosis factor alpha production after intravenous administration at the dosage of 10 mg/kg to rat
Assay type: functional
RECORDED_CONDITIONS: Rattus norvegicus
Answer label 0 if inhibition in vivo at 10 mg/kg is under 10%, and label 1 if it is 10% or more.

Worked set:
[in] For this compound, is measured inhibition in vivo at 10 mg/kg 10% or higher? CCCCCCCC(=O)N[C@H](c1cccc(OC)c1)[C@@H](C)OP(=O)(O)O
[out] label 0

[in] Tell me whether inhibition in vivo at 10 mg/kg is at least 10% here: CCCCCCCC(=O)N[C@H](c1ccccc1)[C@H](CO)OP(=O)(O)O
[out] label 1

[in] Given CCCCCCCC(=O)N[C@H](c1ccccc1)[C@@H](OP(=O)(O)O)c1ccccc1 , state whether its inhibition in vivo at 10 mg/kg is at least 10%.
[out] label 0

[in] Item CCCCCCCC(=O)N[C@H](c1cccc(OC)c1)C(C)(C)OP(=O)(O)O with inhibition in vivo at 10 mg/kg of 10% or above?
[out] label 1

Okay, now this compound:
[in] Threshold query (inhibition in vivo at 10 mg/kg >= 10%) on CCCCCCCC(=O)N[C@@H](c1cccc(OC)c1)[C@@H](C)OP(=O)(O)O
[out] label 1
